This collection of values is drawn from paper PMC6905855.

Molecular target: surface-expressing mutant TPC2 channel (TPC2^LL/AA) in HEK293 cells (Homo sapiens, UniProt Q8NHX9, L11A/L12A)
Construct: expressed in transfected cells; host or cells: HEK293
Sequence (Q8NHX9 whole entry L11A/L12A): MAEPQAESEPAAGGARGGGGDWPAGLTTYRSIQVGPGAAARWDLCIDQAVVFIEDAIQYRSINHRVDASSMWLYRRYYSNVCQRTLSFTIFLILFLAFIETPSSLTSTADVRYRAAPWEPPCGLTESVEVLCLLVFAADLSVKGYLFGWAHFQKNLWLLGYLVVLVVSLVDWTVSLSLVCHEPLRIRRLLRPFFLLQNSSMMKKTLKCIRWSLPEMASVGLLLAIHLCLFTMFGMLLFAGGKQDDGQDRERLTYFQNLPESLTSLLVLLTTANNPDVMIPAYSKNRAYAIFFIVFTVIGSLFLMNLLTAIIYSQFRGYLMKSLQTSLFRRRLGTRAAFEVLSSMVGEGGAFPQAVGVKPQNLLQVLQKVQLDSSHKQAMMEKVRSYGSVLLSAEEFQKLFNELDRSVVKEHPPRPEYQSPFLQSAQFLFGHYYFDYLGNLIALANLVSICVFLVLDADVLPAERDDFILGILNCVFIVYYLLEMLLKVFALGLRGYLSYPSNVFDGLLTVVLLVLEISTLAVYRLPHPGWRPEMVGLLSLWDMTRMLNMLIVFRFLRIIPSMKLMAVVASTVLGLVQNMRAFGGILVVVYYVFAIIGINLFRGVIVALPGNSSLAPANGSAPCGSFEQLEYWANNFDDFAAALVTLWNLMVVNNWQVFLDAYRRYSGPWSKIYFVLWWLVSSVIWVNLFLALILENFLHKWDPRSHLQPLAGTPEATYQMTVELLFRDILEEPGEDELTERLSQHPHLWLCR
Assay: Whole-cell recordings of ITPC2-LL/AA
Type: cell-based
Details: preliminary whole-cell test of positive LOPAC hits; HEK293 cells overexpressing TPC2 LL/AA; voltage ramp -140 to +100 mV (200 ms); measured at -140 mV
Structures can show the parent of a compound that is named as a salt.
Measurement kind: I-TPC2

Known results for compounds:
[
  {
    "Compound": "CNCCCC1c2ccccc2C=Cc2ccccc21 [Protriptyline hydrochloride]",
    "I-TPC2": "~1000 pA"
  },
  {
    "Compound": "O=C(Nc1ccc([N+](=O)[O-])cc1Cl)c1cc(Cl)ccc1O [Niclosamide]",
    "I-TPC2": "No activation"
  },
  {
    "Compound": "CC(C)(C)c1cc(/C=C(\\C#N)C(N)=S)cc(C(C)(C)C)c1O",
    "I-TPC2": "No activation"
  },
  {
    "Compound": "CN(C)CCC[C@@]1(c2ccc(F)cc2)OCc2cc(C#N)ccc21",
    "I-TPC2": "No activation"
  }
]

Consider now this further compound.
Ask: Value lookup for I-TPC2; key = CC(=O)OC(C)C[N+](C)(C)C (stereo not shown) [Methacholine chloride]
Result: No activation

###

Biological target: hTPC2 (Homo sapiens, UniProt Q8NHX9)
Construct: expressed in transfected cells; host or cells: Cos1 and HEK293
Sequence (Q8NHX9 whole entry): as the sequence (Q8NHX9 whole entry L11A/L12A) above, with A11L, A12L counted along it
Assay: Whole-endolysosome recordings of ITPC2
Format: biochemical
Conditions: WT+pip2 (50 nM); MEAN (Fig. 3D)
Measurement kind: EC50 (µM)
Give the quantity in µM, number only.

Ask: Value lookup for EC50; key = CN(C)CCCN1c2ccccc2CCc2ccc(Cl)cc21 [LyNa-VA1.1, Clomipramine]
Result: 14.6

###

Target: hTPC2 (Homo sapiens)
Construct: expressed in transfected cells; host or cells: Cos1 and HEK293
Test: Whole-endolysosome recordings of ITPC2
Format: biochemical
Conditions: 100uM; individual recording, Test 2
Quick rule for you: Whole endo-lysosomal TPC2 current activated by LyNa-VAs, Test 2 under 700 gets true, anything else gets false.

Take a look at these entries with their results.
[
  {
    "Compound": "c1ccc2c(c1)Nc1ccccc1S2 [Phenothiazine]",
    "Group": "true"
  },
  {
    "Compound": "CNCCC=C1c2ccccc2CCc2ccccc21 [LyNa-VA1.5/nortriptyline]",
    "Group": "false"
  },
  {
    "Compound": "CN(C)CCCN1c2ccccc2Sc2ccc(Cl)cc21 [LyNa-VA2.1/chlorpromazine]",
    "Group": "false"
  },
  {
    "Compound": "NC(=O)N1c2ccccc2C=Cc2ccccc21 [Carbamazepine]",
    "Group": "true"
  }
]

We next turn to a different compound, shown below.
Ask: Hi there! Is Whole endo-lysosomal TPC2 current activated by LyNa-VAs, Test 2 for CN(C)CCCN1c2ccccc2CCc2ccccc21 [LyNa-VA1.3/imipramine] below 700, do you know?
Result: true

###

Biological target: hTPC2 (Homo sapiens)
Construct: expressed in transfected cells; host or cells: Cos1 and HEK293
Assay: Whole-endolysosome recordings of ITPC2
Format: biochemical
Settings: WT +PI(3,5)P2 (50 nM); whole-endolysosome; Figure 3C
Measurement kind: pEC50
Keep it numeric: pEC50 is minus log10 of the concentration in mol/L.

Ask: Value lookup for pEC50; key = `CN(C)CCCN1c2ccccc2CCc2ccc(Cl)cc21`
Result: 4.92

###

Molecular target: PI(3,5)P2-insensitive mutant TPC2 channel (K204A) (Homo sapiens, UniProt Q8NHX9, K204A)
Construct: expressed in transfected cells; host or cells: HEK293
Sequence (Q8NHX9 whole entry K204A): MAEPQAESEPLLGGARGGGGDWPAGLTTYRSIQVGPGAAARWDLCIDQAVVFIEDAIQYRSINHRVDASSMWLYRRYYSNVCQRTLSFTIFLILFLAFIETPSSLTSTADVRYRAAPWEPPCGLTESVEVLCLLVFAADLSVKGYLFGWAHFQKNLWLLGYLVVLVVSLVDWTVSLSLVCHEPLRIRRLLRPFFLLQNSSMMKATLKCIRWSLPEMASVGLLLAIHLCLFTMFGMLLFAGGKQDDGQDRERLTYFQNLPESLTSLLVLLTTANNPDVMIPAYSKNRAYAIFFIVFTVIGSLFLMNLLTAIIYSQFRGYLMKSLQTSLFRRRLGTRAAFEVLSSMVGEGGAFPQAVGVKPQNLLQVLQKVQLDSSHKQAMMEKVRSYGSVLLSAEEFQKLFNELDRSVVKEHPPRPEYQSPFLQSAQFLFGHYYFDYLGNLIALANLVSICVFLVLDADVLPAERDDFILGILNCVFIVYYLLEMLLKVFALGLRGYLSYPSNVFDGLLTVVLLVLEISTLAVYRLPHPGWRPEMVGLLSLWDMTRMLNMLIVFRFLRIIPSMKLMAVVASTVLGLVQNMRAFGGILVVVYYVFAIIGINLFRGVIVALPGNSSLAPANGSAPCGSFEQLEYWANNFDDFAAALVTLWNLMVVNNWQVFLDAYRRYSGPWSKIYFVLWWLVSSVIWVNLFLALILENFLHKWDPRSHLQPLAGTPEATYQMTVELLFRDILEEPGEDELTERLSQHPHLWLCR
Assay: Whole-endolysosome recordings of ITPC2-K204A
Format: biochemical
Conditions: K204A +PI(3,5)P2 (50 nM); whole-endolysosome; Figure 3C
Measurement kind: pEC50
Keep it numeric: pEC50 is minus log10 of the concentration in mol/L.

Ask: Value lookup for pEC50; key = `CN(C)CCCN1c2ccccc2CCc2ccc(Cl)cc21`
Result: 4.33

###

EC50 reference
Target: UniProtKB Q9ULQ1
Experiment: Whole-endolysosome recordings of ITPC1
Conditions: whole-endolysosome; n = 3 patches; read-out: EC50, activation of TPC1
Give the quantity in µM, number only.

[
  {
    "Molecule": "CN(C)CCCN1c2ccccc2CCc2ccc(Cl)cc21 [LyNa-VA1.1, Clomipramine]",
    "Units of measure": "µM",
    "EC50": 27
  }
]

Consider now this further molecule.
Ask: Value lookup for EC50; key = CNCCCN1c2ccccc2CCc2ccccc21 [LyNa-VA1.2, Desipramine]
Result: 10

###

Target: PI(3,5)P2-insensitive mutant TPC2 channel (K204A) (Homo sapiens, UniProt Q8NHX9, K204A)
Construct: expressed in transfected cells; host or cells: HEK293
Assay: Whole-endolysosome recordings of ITPC2-K204A
Format: biochemical
Details: K204A -PI(3,5)P2; whole-endolysosome; Figure 3C
Measurement kind: pEC50
Keep it numeric: pEC50 is minus log10 of the concentration in mol/L.

Ask: Value lookup for pEC50; key = `CN(C)CCCN1c2ccccc2CCc2ccc(Cl)cc21`
Result: 4.25

###

Whole endo-lysosomal TPC2 current activated by LyNa-VAs, Test 3 reference
Target: hTPC2 (Homo sapiens)
Construct: expressed in transfected cells; host or cells: Cos1 and HEK293
Assay: Whole-endolysosome recordings of ITPC2
Format: biochemical
Design: unit not given here
Conditions: 100uM; individual recording, Test 3
Number only, no unit.

[
  {
    "Molecule": "CN(C)CCCN1c2ccccc2Sc2ccc(C(F)(F)F)cc21",
    "Observed measurement": 681.2
  },
  {
    "Molecule": "CNCCC=C1c2ccccc2CCc2ccccc21",
    "Observed measurement": 1937.9
  },
  {
    "Molecule": "c1ccc2c(c1)Nc1ccccc1S2",
    "Observed measurement": 4.8
  }
]

Ask: Value lookup for Whole endo-lysosomal TPC2 current activated by LyNa-VAs, Test 3; key = `CN(C)CCCN1c2ccccc2CCc2ccccc21`
Result: 334.8

Ask: Could you do the same for NC(=O)N1c2ccccc2C=Cc2ccccc21 [Carbamazepine] , please?
Result: 23.1

Ask: Could you do the same for `CN(C)CCCN1c2ccccc2Sc2ccc(Cl)cc21` , please?
Result: 268.2

###

Biological target: hTPC2 (Homo sapiens, UniProt Q8NHX9)
Construct: expressed in transfected cells; host or cells: Cos1 and HEK293
Experiment: Whole-endolysosome recordings of ITPC2
Format: biochemical
Settings: - PI(3,5)P2
Measurement kind: pEC50
Keep it numeric: pEC50 is minus log10 of the concentration in mol/L.

Ask: Value lookup for pEC50; key = `Nc1nc2ccc(OC(F)(F)F)cc2s1`
Result: 3.74

###

Molecular target: surface-expressing mutant TPC2 channel (TPC2^LL/AA) in HEK293 cells (Homo sapiens, UniProt Q8NHX9, L11A/L12A)
Construct: expressed in transfected cells; host or cells: HEK293
Assay: Whole-cell recordings of ITPC2-LL/AA
Format: cell-based
Details: bath application; symmetric Na^+; 100 µM where stated
Measurement kind: activation of whole-cell ITPC2-LL/AA (in words)

[
  {
    "Chemical structure": "CN(C)CCCN1c2ccccc2Sc2ccc(Cl)cc21",
    "Observed measurement": "ITPC2 was evoked"
  },
  {
    "Chemical structure": "CNCCCN1c2ccccc2CCc2ccccc21",
    "Observed measurement": "ITPC2 was evoked"
  },
  {
    "Chemical structure": "CN(C)CCC=C1c2ccccc2CCc2ccccc21",
    "Observed measurement": "ITPC2 was evoked"
  }
]

###

Target: hTPC2 (Homo sapiens, UniProt Q8NHX9)
Construct: expressed in transfected cells; host or cells: Cos1 and HEK293
Test: Whole-endolysosome recordings of ITPC2
Format: biochemical
Details: 100uM; individual recording, Test 1
Whole endo-lysosomal TPC2 current activated by LyNa-VAs, Test 1 reference

Known results for compounds:
[
  {
    "Compound": "CNCCC=C1c2ccccc2CCc2ccccc21",
    "Observed measurement": 1814.6
  },
  {
    "Compound": "CN(C)CCCN1c2ccccc2CCc2ccccc21",
    "Observed measurement": 621.3
  },
  {
    "Compound": "c1ccc2c(c1)Nc1ccccc1S2",
    "Observed measurement": 10.3
  },
  {
    "Compound": "NC(=O)N1c2ccccc2C=Cc2ccccc21 [Carbamazepine]",
    "Observed measurement": -17
  },
  {
    "Compound": "CN(C)CCCN1c2ccccc2Sc2ccc(C(F)(F)F)cc21",
    "Observed measurement": 1572
  }
]

Ask: Value lookup for Whole endo-lysosomal TPC2 current activated by LyNa-VAs, Test 1; key = `CN(C)CCCN1c2ccccc2Sc2ccc(Cl)cc21`
Result: 1013.4
